- Tested on: HGGX39 (paediatric high-grade glioma line)
- ASSAY PROCEDURE: growth inhibition (% activity, log2 RLU normalised to DMSO / staurosporine); higher = more growth inhibition
- SETUP CONDITIONS: 33 µM
Attribute: growth inhibition
Report the value in % with no unit label.

COMPOUND	UNIT TAG	growth inhibition
C=C1CC[C@H](O)C/C1=C/C=C1\CCC[C@]2(C)[C@@H]([C@H](C)/C=C/[C@H](C)C(C)C)CC[C@@H]12	%	7.46
CC1(C)S[C@@H]2[C@H](NC(=O)[C@H](NC(=O)N3CCNC3=O)c3ccccc3)C(=O)N2[C@H]1C(=O)O	%	1.59

Give its growth inhibition value. Item: CC1(C)S[C@@H]2[C@H](NC(=O)C(C(=O)O)c3ccccc3)C(=O)N2[C@H]1C(=O)O (some centres undefined)
2.53

Give its growth inhibition value. Item: CCOC(=O)[C@H](CCc1ccccc1)N[C@H]1CS[C@H](c2cccs2)CN(CC(=O)O)C1=O
0.0238

---

- Test system: SUDIPGVI (diffuse intrinsic pontine glioma line)
- ASSAY PROCEDURE: growth inhibition (% activity, log2 RLU normalised to DMSO / staurosporine); higher = more growth inhibition
- SETUP CONDITIONS: 33 µM
Attribute: growth inhibition
Report the value in % with no unit label.

Past entries and their recorded results:
MOLECULE	SYSTEM	growth inhibition, %
CCOC(=O)C1=C[C@]2(CC)CCCN3CCc4c(n1c1ccccc41)[C@@H]32	SUDIPGVI	0.167
C[C@](N)(Cc1ccc(O)c(O)c1)C(=O)O	SUDIPGVI	1.41
Cc1cn(-c2cc(NC(=O)c3ccc(C)c(Nc4nccc(-c5cccnc5)n4)c3)cc(C(F)(F)F)c2)cn1	SUDIPGVI	2.31
O=C(Nc1cccc2c(=O)cc(-c3nnn[nH]3)oc12)c1ccc(OCCCCc2ccccc2)cc1	SUDIPGVI	1.62
CCC(=O)OCC(=O)[C@@]1(OC(=O)CC)[C@@H](C)C[C@H]2[C@@H]3CCC4=CC(=O)C=C[C@]4(C)[C@@]3(Cl)[C@@H](O)C[C@@]21C	SUDIPGVI	-0.46

Provide value of growth inhibition for this record tested with SUDIPGVI: N[C@@H](Cc1cc(I)c(Oc2ccc(O)c(I)c2)c(I)c1)C(=O)O
10.1

Provide value of growth inhibition for this record tested with SUDIPGVI: CCCc1cc(C(N)=S)ccn1
-0.254

Provide value of growth inhibition for this record tested with SUDIPGVI: Cc1noc(NS(=O)(=O)c2ccc(N)cc2)c1C
-0.478

---

Attribute: growth inhibition
- Test system: SUDIPGIV (diffuse intrinsic pontine glioma line)
- ASSAY PROCEDURE: growth inhibition (% activity, log2 RLU normalised to DMSO / staurosporine); higher = more growth inhibition
- SETUP CONDITIONS: 33 µM
Report the value in % with no unit label.

Past entries and their recorded results:
COMPOUND	growth inhibition [%]
CS(=O)(=O)c1ccc(C(=O)Nc2ccc(Cl)c(-c3ccccn3)c2)c(Cl)c1	0.0205
Cc1cc(-n2c(=O)[nH]c(=O)n(C)c2=O)ccc1Oc1ccc(SC(F)(F)F)cc1	2.64
CC12CC3CC(C)(C1)CC(N)(C3)C2	0.153
CNNCc1ccc(C(=O)NC(C)C)cc1	-0.464
CCCC(=O)[O-].[Na+]	-1.12

Provide value of growth inhibition for this record tested with SUDIPGIV: c1ccc(CN(CC2=NCCN2)c2ccccc2)cc1
-2.17

Provide value of growth inhibition for this record tested with SUDIPGIV: N=C(N)c1ccc2cc(OC(=O)c3ccc(N=C(N)N)cc3)ccc2c1
1.8

Provide value of growth inhibition for this record tested with SUDIPGIV: [O-][n+]1cccc(CO)c1
-0.682

Provide value of growth inhibition for this record tested with SUDIPGIV: CC1(C)O[C@@H]2C[C@H]3[C@@H]4C[C@H](F)C5=CC(=O)C=C[C@]5(C)[C@@]4(F)[C@@H](O)C[C@]3(C)[C@]2(C(=O)CO)O1
1.18

Provide value of growth inhibition for this record tested with SUDIPGIV: NC[C@H](O)c1ccc(O)c(O)c1
1.37

Provide value of growth inhibition for this record tested with SUDIPGIV: CCC(=O)OCC(=O)[C@@]1(OC(=O)CC)[C@@H](C)C[C@H]2[C@@H]3CCC4=CC(=O)C=C[C@]4(C)[C@@]3(F)[C@@H](O)C[C@@]21C
-0.108

---

- Test system: SUDIPGXIII (diffuse intrinsic pontine glioma line)
- ASSAY PROCEDURE: growth inhibition (% activity, log2 RLU normalised to DMSO / staurosporine); higher = more growth inhibition
- SETUP CONDITIONS: 33 µM
Attribute: growth inhibition
Report the value in % with no unit label.

Past entries and their recorded results:
MOLECULE	UNIT TAG	growth inhibition
O=C(O)c1cc(/N=N/c2ccc(O)c(C(=O)O)c2)ccc1O	%	0.343
C[N+](C)(CCOc1ccccc1)Cc1ccccc1.O=C([O-])c1cc2ccccc2cc1O	%	-1.56
CNC(=O)CN(CCN(CCN(CC(=O)[O-])CC(=O)NC)CC(=O)[O-])CC(=O)[O-].[Gd+3]	%	0.753
CCS(=O)(=O)CCn1c([N+](=O)[O-])cnc1C	%	0.464
C=CCc1cc(OC)c(O)c(C(=O)NCCO)c1	%	-0.0438

Give its growth inhibition value. Item: Nc1nc(CC(=O)Nc2ccc(CCNC[C@H](O)c3ccccc3)cc2)cs1
0.226

Give its growth inhibition value. Item: Cn1c(=O)c2c(ncn2CC(O)CO)n(C)c1=O (centres undefined)
-0.692

Give its growth inhibition value. Item: N#C[C@@H]1CCCN1C(=O)CNC12CC3CC(CC(O)(C3)C1)C2
-3.49

Give its growth inhibition value. Item: NC[C@@H]1O[C@H](O[C@H]2[C@@H](O)[C@H](O[C@@H]3[C@@H](O)[C@H](N)C[C@H](N)[C@H]3O[C@H]3O[C@H](CO)[C@@H](O)[C@H](O)[C@H]3N)O[C@@H]2CO)[C@H](N)[C@@H](O)[C@@H]1O
0.0349

---

Attribute: growth inhibition
- Test system: DIPGX29 (H3.3 K27M diffuse intrinsic pontine glioma line)
- ASSAY PROCEDURE: growth inhibition (% activity, log2 RLU normalised to DMSO / staurosporine); higher = more growth inhibition
- SETUP CONDITIONS: 33 µM
Report the value in % with no unit label.

Give its growth inhibition value. Item: CCCC(=O)[O-].[Na+]
-1.17

Give its growth inhibition value. Item: CCC[C@@H]1C[C@@H](C(=O)N[C@@H]([C@H]2O[C@H](SC)[C@H](O)[C@@H](O)[C@H]2O)[C@@H](C)O)N(C)C1
-2.47

Give its growth inhibition value. Item: CC1(C)O[C@@H]2C[C@H]3[C@@H]4CCC5=CC(=O)C=C[C@]5(C)[C@H]4[C@@H](O)C[C@]3(C)[C@]2(C(=O)CO)O1
0.656

Give its growth inhibition value. Item: Cc1cc2c(cc1S(N)(=O)=O)S(=O)(=O)CCC2
0.849

Give its growth inhibition value. Item: CCOC(=O)[C@H](CCc1ccccc1)N[C@@H](C)C(=O)N1Cc2cc(OC)c(OC)cc2C[C@H]1C(=O)O
-2.18

---

- Tested on: HNSC
- ASSAY PROCEDURE: growth inhibition (% activity, log2 RLU normalised to DMSO / staurosporine); higher = more growth inhibition
- SETUP CONDITIONS: 33 µM
ASSAY METRIC: growth inhibition (%)
Report the value in % with no unit label.

Past entries and their recorded results:
MOLECULE	UNIT TAG	growth inhibition
C[C@@](Cc1ccc(O)c(O)c1)(NN)C(=O)O	%	-1.19
CC1(C)S[C@@H]2[C@H](NC(=O)C(C(=O)O)c3ccccc3)C(=O)N2[C@H]1C(=O)O (stereo partly specified)	%	0.956
O=C(Nc1ccccc1)OCC(CN1CCCCC1)OC(=O)Nc1ccccc1 (stereo unspecified)	%	9.66
COc1cnc(NS(=O)(=O)c2ccc(N)cc2)nc1	%	0.00282
CC(NCCc1ccc(O)cc1)C(O)c1ccc(O)cc1 (stereo unspecified)	%	-0.0915

Give its growth inhibition value. Item: CC(=O)OCC(=O)[C@@]12N=C(C)O[C@@H]1C[C@H]1[C@@H]3CCC4=CC(=O)C=C[C@]4(C)[C@H]3[C@@H](O)C[C@@]12C
1.26

Give its growth inhibition value. Item: O=C(N[C@H](CO)[C@H](O)c1ccc([N+](=O)[O-])cc1)C(Cl)Cl
3.64

Give its growth inhibition value. Item: CNC(=O)c1ccc(N2C(=S)N(c3ccc(C#N)c(C(F)(F)F)c3)C(=O)C2(C)C)cc1F
4.97

Give its growth inhibition value. Item: O=c1cc[nH]c(=S)[nH]1
36.9

---

Attribute: growth inhibition
- Test system: SUDIPGIV
- ASSAY PROCEDURE: growth inhibition (% activity, log2 RLU normalised to DMSO / staurosporine); higher = more growth inhibition
- SETUP CONDITIONS: 33 µM
Report the value in % with no unit label.

Past entries and their recorded results:
MOLECULE	growth inhibition [%]
CC(COc1ccccc1)N(CCCl)Cc1ccccc1 (stereo not given)	-2.44
CCCCOc1ccc(OCCCN2CCOCC2)cc1	1.4

Give its growth inhibition value. Item: COc1cc([C@@H]2c3cc4c(cc3[C@@H](O[C@@H]3O[C@@H]5CO[C@@H](c6cccs6)O[C@H]5[C@H](O)[C@H]3O)[C@H]3COC(=O)[C@H]23)OCO4)cc(OC)c1O
48

Give its growth inhibition value. Item: CC(=O)Oc1ccccc1C(=O)Nc1ncc([N+](=O)[O-])s1
3.07

Give its growth inhibition value. Item: COc1ccccc1OCC(O)CO (stereo not given)
-1.52
